# TARGET_ENTITY: Human M4 (Homo sapiens, UniProt P08173)
# Sequence (P08173 whole entry): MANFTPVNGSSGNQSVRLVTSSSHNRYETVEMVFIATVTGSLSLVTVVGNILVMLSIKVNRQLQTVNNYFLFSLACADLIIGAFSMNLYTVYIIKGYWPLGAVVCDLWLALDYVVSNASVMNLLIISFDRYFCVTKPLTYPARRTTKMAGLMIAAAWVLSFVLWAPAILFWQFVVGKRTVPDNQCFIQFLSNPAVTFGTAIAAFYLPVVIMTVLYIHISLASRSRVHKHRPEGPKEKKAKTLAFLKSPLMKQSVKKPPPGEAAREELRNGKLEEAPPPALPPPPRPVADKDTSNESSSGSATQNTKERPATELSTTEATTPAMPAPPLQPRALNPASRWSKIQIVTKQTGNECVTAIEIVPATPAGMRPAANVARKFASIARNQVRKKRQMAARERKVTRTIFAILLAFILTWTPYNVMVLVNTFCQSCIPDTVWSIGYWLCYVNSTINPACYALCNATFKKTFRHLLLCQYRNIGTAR
# ASSAY_NOTES: mAChR M4 cell-based functional assay (calcium flux, potentiation of EC20 acetylcholine response)
pEC50: −log10 of the molar value.
Would you mind labelling by pEC50? At or over 6 is class 1, under is class 0.

COMPOUND	TARGET_ENTITY	CLASS_LABEL
Cc1cc(C)c2c(n1)sc1c(C3CCN(C(=O)C4(C)CC4)CC3)ncnc12	Human M4 (Homo sapiens, UniProt P08173)	class 1
Cc1nnc2sc3c(C4CCN(C(=O)C5(F)CC5)CC4)ncnc3c2c1C	Human M4 (Homo sapiens, UniProt P08173)	class 1
Cc1cc(C)c2c(n1)sc1c(-c3nccs3)ncnc12	Human M4 (Homo sapiens, UniProt P08173)	class 0
Cc1cc(C)c2c(n1)sc1c(C)ncnc12	Human M4 (Homo sapiens, UniProt P08173)	class 0
Cc1cc(C)c2c(n1)sc1c(C3CCCCC3)ncnc12	Human M4 (Homo sapiens, UniProt P08173)	class 0
Cc1cc(C)c2c(n1)sc1c(C3CC3)ncnc12	Human M4 (Homo sapiens, UniProt P08173)	class 0
Cc1nnc2sc3c(C4CCC(F)(F)CC4)ncnc3c2c1C	Human M4 (Homo sapiens, UniProt P08173)	class 1
Cc1nnc2sc3c(C4CCN(C(=O)C5CCCO5)CC4)ncnc3c2c1C (stereo not shown)	Human M4 (Homo sapiens, UniProt P08173)	class 0
Cc1cc(C)c2c(n1)sc1c(C3CCN(C=O)CC3)ncnc12	Human M4 (Homo sapiens, UniProt P08173)	class 1
Cc1nnc2sc3c(C4CCCCC4)ncnc3c2c1C	Human M4 (Homo sapiens, UniProt P08173)	class 1
